Tested on: lactate dehydrogenase (LDH)
Experiment: ELISA analysis of phage on LDH (irrelevant, non-specific target)
Format: binding
Conditions: peptide binding to LDH polypeptide (non-specific binding); phage ELISA units read at 405 nm
parameter: LDH (OD)

substance="RSIRLQLIDEACQFFDGLCT (DGI-2-20R-3-A8; listed as Escherichia coli)" parameter="LDH (OD)" recorded_measurement=1.1
substance="GNKCFPPHDLFWDPCDQLQS (DGI-2-20R-4-F6; listed as Escherichia coli)" parameter="LDH (OD)" recorded_measurement=1.0
substance="TLVTEGNIKGSVKAHKDIGVWQLWWDWLSVTDSETVGRVSH (TLVTEGNKGSVKAHKDIGVWQLWWDWLSVTDSETVGRVSH; DGI-2-40F-3-D10; listed as Escherichia coli) [DGL-2-40F-3-D10]" parameter="LDH (OD)" recorded_measurement=0.9
substance="GMWIRPNGHMELQGGYTARS (GMWIRPNGHMFLQGGYTARS; DGI-2-20R-4-G8; listed as Escherichia coli)" parameter="LDH (OD)" recorded_measurement=1.1
substance="DSEA*RVWYSGFLRRLGHMC (DSEARVWYSGFLRRLGHMC; DGI-2-20F-PP-F7; listed as Escherichia coli)" parameter="LDH (OD)" recorded_measurement=1.0
substance="WVVALRRIRLGLRRGVECLL (DGI-2-20F-PP-D5; listed as Escherichia coli)" parameter="LDH (OD)" recorded_measurement=1.2
substance="LLLPVRWRDAQPRSLLMEWI (DGI-2-20F-PP-F8; listed as Escherichia coli)" parameter="LDH (OD)" recorded_measurement=1.1

---

Molecular target: DGI-2 (Homo sapiens, UniProt Q15004)
Construct: encompassed the entire DGI-2 open reading frame (ORF); His-tag of vector pIVEX2.3-MCS (inferred from the vector and from the reverse primer lacking a stop codon); made in house; host or cells: cell-free in vitro translation (Rapid Translation System RTS, Roche; E. coli lysate)
Sequence (Q15004 1-111): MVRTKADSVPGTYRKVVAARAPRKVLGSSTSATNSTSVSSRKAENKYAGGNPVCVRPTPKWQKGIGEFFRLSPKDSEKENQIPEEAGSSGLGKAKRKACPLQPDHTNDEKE
Experiment: ELISA analysis of phage on DGI-2 polypeptide (specific binding)
Details: binding to DGI-2 polypeptide (specific binding); phage ELISA units read at 405 nm
# if measured DGI-2 (OD) < 2 OD: satisfied  # else: not satisfied

entry_sequence="CCAWNGVGVGGLGWRVVVGP (DGI-2-20F-PP-H4; listed as Escherichia coli)" label="not satisfied"
entry_sequence="GWSDFVATGSWSGQVSAALN (DGI-2-20R-4-F120; listed as Escherichia coli)" label="not satisfied"
entry_sequence="PVYRVAMCRISVGCSAGAWF (DGI-2-20F-PP-C12; listed as Escherichia coli)" label="not satisfied"
entry_sequence="WEVGQVEKFSRGVGGWWPTG [DGI-2-20R-3-D3]" label="not satisfied"
entry_sequence="HGTRLRGVDYVMTWAGWQGYSSRKHVQQAVAGSSPGSDEL (DGI-2-40F-3-B1; listed as Escherichia coli)" label=satisfied
entry_sequence="RTLFINGGCCGKGSGGGRPL (DGI-2-20F-PP-G1; listed as Escherichia coli)" label=satisfied
entry_sequence="MGVVLECEGGWSIPGQTCYF (DGI-2-20R-3-C7; listed as Escherichia coli)" label="not satisfied"
entry_sequence="FSSTGILLRSGRATAVGHVT (DGI-2-20F-3-A6; listed as Escherichia coli)" label=satisfied
